# Tested on: HCV GT 1b replicon (Huh-7 cells)
# protocol description: HCV Replicon Assay
# Type: cell-based
pEC50: −log10 of the molar value.
measured quantity: pEC50

Give pEC50 for this entry on HCV GT 1b replicon (Huh-7 cells): O=c1ccn(C2OC(CO)C(O)C2(F)Cl)c(=O)[nH]1 (stereo not shown)
< 5.00

---

# protocol description: Cellular toxicity assay in Vero cells
# Assay type: cell-based
# condition set: African green monkey, read-out: Cytotoxicity, CC50
measured quantity: CC50

Entry CC(C)OC(=O)[C@H](C)NP(=O)(OC[C@H]1O[C@@H](n2ccc(=O)[nH]c2=O)C(F)(Cl)[C@H]1O)Oc1ccccc1 (stereo partly shown) [Compound 12] needs its CC50 filled in; supply it.
> 100 µM
